Just for reference, patent EP4596580A1 is where these values come from.

- System name: LIGHT on the surface of HEK293-LIGHT stable cells (human, UniProt O43557 1-240)
- Sequence (O43557 whole entry): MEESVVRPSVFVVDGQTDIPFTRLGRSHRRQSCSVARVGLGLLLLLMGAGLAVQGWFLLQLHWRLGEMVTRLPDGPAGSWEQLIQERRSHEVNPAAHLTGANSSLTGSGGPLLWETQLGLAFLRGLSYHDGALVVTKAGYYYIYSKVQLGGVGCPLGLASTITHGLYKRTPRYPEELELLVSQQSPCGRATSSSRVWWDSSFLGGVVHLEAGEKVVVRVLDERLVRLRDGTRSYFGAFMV
- Assay protocol: cell-based or functional assay
Attribute measured: IC50, LTβR NF-κB luciferase reporter, HEK293-LIGHT cells (nM)
Respond with the bare value in nM.

Example binders with recorded IC50, LTβR NF-κB luciferase reporter, HEK293-LIGHT cells:
>  <Binder>
LT-m37 (antibody, human IgG4, V domains shown) VH: QVQLKQSGAELVRPGTSVKVSCKASGYSFTGYFINWVKQSHGKSLEWIGRIYPYNVNTFYNQNFKGRATLTADKSSSTAHMELLSLTSEDSAVYYCGRGTHYYGSSGAMDYWGQGTSVTVSS VL: DILLTQSHKFMSTSVGDRVSITCKASQNVGTAVAWYQQKPGQSPKLLIYSASNRYTGVPDRFTGSGSGTDFTLTISNMQSEDLADYFCQQYSSYPYTFGGGTKLEIK

>  <Measured result>
2.28

$$$$
>  <Binder>
hum_LT-m37-13 (antibody, human IgG4, V domains shown, humanized from LT-m37) VH: QVQLVQSGAEVKKPGASVKVSCKASGYSFTGYFINWVRQAPGQGLEWIGRIYPYNVDTFYNQNFKGRVTMTADKSTSTAYMELSSLRSEDTAVYYCGRGTHYYGSSGAMDYWGQGTLVTVSS VL: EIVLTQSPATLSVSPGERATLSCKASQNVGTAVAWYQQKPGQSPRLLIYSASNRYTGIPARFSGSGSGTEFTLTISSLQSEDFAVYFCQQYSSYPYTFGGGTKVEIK

>  <Measured result>
0.867

$$$$
>  <Binder>
hum_LT-m37-14 (antibody, human IgG4, V domains shown, humanized from LT-m37) VH: QVQLVQSGAEVKKPGASVKVSCKASGYSFTGYFINWVRQAPGQSLEWIGRIYPYNVDTFYNQNFKGRATLTADKSTSTAYMELSSLRSEDTAVYYCGRGTHYYGSSGAMDYWGQGTLVTVSS VL: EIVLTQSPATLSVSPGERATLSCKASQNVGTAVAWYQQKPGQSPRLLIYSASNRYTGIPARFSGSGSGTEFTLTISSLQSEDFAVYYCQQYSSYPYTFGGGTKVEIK

>  <Measured result>
1.86

$$$$

Problem: Which IC50, LTβR NF-κB luciferase reporter, HEK293-LIGHT cells is listed for hum_LT-m37-16 (antibody, human IgG4, V domains shown, humanized from LT-m37) VH: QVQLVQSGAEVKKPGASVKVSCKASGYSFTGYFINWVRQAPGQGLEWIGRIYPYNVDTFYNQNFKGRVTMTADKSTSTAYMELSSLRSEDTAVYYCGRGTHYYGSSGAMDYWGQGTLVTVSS VL: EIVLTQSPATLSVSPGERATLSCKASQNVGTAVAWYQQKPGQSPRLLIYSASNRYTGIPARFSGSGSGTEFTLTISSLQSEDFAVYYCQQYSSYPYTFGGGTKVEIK ?
Result: 2.55
